# System: HT29
# experiment.notes: cells
# Assay type: cell-based
# condition: read-out: LC50; HT29
parameter.measured: CC50

>>> result_value("COc1c(C)cc2c(c1O)[C@@H]1C3[C@@H]4SC[C@]5(NC(C)Cc6c5[nH]c5ccccc65)C(=O)COC[C@@H](c5c6c(c(C)c(OC(C)=O)c54)OCO6)N3[C@@H](O)[C@H](C2)N1C (stereo partly shown) [Compound 44]")
"≥ 13 µM"

###

# Test system: SK-OV3
# experiment.notes: Inhibition of cells growth by colorimetric assay (SRB), SK-OV3
# Format: cell-based
# condition: SK-OV3, 48 hours exposure, SRB
Documented GI50 across a set of compounds
parameter.measured: GI50 (nM)

>>> result_value("COc1c(C)cc2c(c1O)[C@@H]1C3[C@@H]4SC[C@]5(C(=O)COC[C@@H](c6c7c(c(C)c(OC(C)=O)c64)OCO7)N3[C@@H](O)[C@H](C2)N1C)c1[nH]c2ccccc2c1CCN5C (stereo partly shown) [Compound 39]")
62.4
>>> result_value("COc1c(C)cc2c(c1O)[C@@H]1C3[C@@H]4SC[C@]5(NC(C)Cc6c5[nH]c5ccc(O)cc65)C(=O)COC[C@@H](c5c6c(c(C)c(OC(C)=O)c54)OCO6)N3[C@@H](O)[C@H](C2)N1C (stereo partly shown) [Compound 38]")
2.55
>>> result_value("COc1c(C)cc2c(c1O)[C@@H]1C3[C@@H]4SC[C@]5(NC(C)Cc6c5[nH]c5ccc(F)cc65)C(=O)COC[C@@H](c5c6c(c(C)c(OC(C)=O)c54)OCO6)N3[C@@H](O)[C@H](C2)N1C (stereo partly shown) [Compound 42]")
7.37
>>> result_value("COc1c(C)cc2c(c1O)[C@@H]1C3[C@@H]4SC[C@]5(C(=O)COC[C@@H](c6c7c(c(C)c(OC(C)=O)c64)OCO7)N3[C@@H](O)[C@H](C2)N1C)c1[nH]c2ccccc2c1CCN5C (stereo partly shown) [Compound 40]")
2.9

###

# System: IGROV-ET
# experiment.notes: cells
# Type: cell-based
# condition: read-out: LC50; IGROV-ET
parameter.measured: CC50

>>> result_value("COc1c(C)cc2c(c1O)[C@@H]1C3[C@@H]4SC[C@]5(NC(C)Cc6c5[nH]c5ccccc65)C(=O)COC[C@@H](c5c6c(c(C)c(OC(C)=O)c54)OCO6)N3[C@@H](O)[C@H](C2)N1C (some centres unmarked) [Compound 44]")
"0.13 µM"
>>> result_value("COc1c(C)cc2c(c1O)[C@@H]1C3[C@@H]4SC[C@]5(NC(C)Cc6c5[nH]c5ccccc65)C(=O)COC[C@@H](c5c6c(c(C)c(OC(C)=O)c54)OCO6)N3[C@@H](O)[C@H](C2)N1C (some centres unmarked) [Compound 43]")
"13 µM"

###

# System: LOVO
# experiment.notes: cells
# Format: cell-based
# condition: read-out: LC50; LOVO
parameter.measured: CC50 (nM)

>>> result_value("COc1c(C)cc2c(c1O)[C@@H]1C3[C@@H]4SC[C@]5(NC(C)Cc6c5[nH]c5ccccc65)C(=O)COC[C@@H](c5c6c(c(C)c(OC(C)=O)c54)OCO6)N3[C@@H](O)[C@H](C2)N1C (some centres unmarked) [Compound 44]")
96.1
>>> result_value("COc1c(C)cc2c(c1O)[C@@H]1C3[C@@H]4SC[C@]5(NC(C)Cc6c5[nH]c5ccccc65)C(=O)COC[C@@H](c5c6c(c(C)c(OC(C)=O)c54)OCO6)N3[C@@H](O)[C@H](C2)N1C (some centres unmarked) [Compound 43]")
38.9

###

# System: HT29
# experiment.notes: cells
# Assay type: cell-based
# condition: Homo sapiens, HT-29, 48 h, HT29, 48 hours exposure, SRB
Documented IC (TGI) across a set of molecules
parameter.measured: IC (TGI) (nM)

>>> result_value("C=CCOC(=O)Oc1c(C)c2c(c3c1[C@H]1SC[C@]4(NCCc5c4[nH]c4ccccc54)C(=O)COC[C@@H]3N3C1[C@H]1c4c(cc(C)c(OC)c4O)C[C@@H]([C@@H]3O)N1C)OCO2 (stereo partly drawn) [Compound 64]")
12.5
>>> result_value("C=COC(=O)Oc1c(C)c2c(c3c1[C@H]1SC[C@]4(NCCC5c6ccccc6NC54)C(=O)OC[C@@H]3N3C1[C@H]1c4c(cc(C)c(OC)c4OC(=O)OC=C)C[C@@H]([C@@H]3C#N)N1C)OCO2 (stereo partly drawn) [Compound 68]")
95.9
>>> result_value("COc1c(C)cc2c(c1OC(=O)OC(C)(C)C)[C@@H]1C3[C@@H]4SC[C@]5(NCCc6c5[nH]c5ccccc65)C(=O)COC[C@@H](c5c6c(c(C)c(OC(=O)OC(C)(C)C)c54)OCO6)N3[C@@H](C#N)[C@H](C2)N1C (stereo partly drawn) [Compound 58]")
10800
>>> result_value("COc1c(C)cc2c(c1O)[C@@H]1C3[C@@H]4SC[C@]5(NCCc6c5[nH]c5ccccc65)C(=O)COC[C@@H](c5c6c(c(C)c(OC(=O)C(F)(F)C(F)(F)C(F)(F)F)c54)OCO6)N3[C@@H](O)[C@H](C2)N1C (stereo partly drawn) [Compound 62]")
66
>>> result_value("COc1c(C)cc2c(c1O)[C@@H]1C3[C@@H]4SC[C@]5(NCCc6c5[nH]c5ccccc65)C(=O)COC[C@@H](c5c6c(c(C)c(OC(=O)OC(C)(C)C)c54)OCO6)N3[C@@H](C#N)[C@H](C2)N1C (stereo partly drawn) [Compound 57]")
1410
>>> result_value("CCCC(=O)Oc1c(OC)c(C)cc2c1[C@@H]1C3[C@@H]4SC[C@]5(NCCc6c5[nH]c5ccccc65)C(=O)COC[C@@H](c5c6c(c(C)c(OC(C)=O)c54)OCO6)N3[C@@H](C#N)[C@H](C2)N1C (stereo partly drawn) [Compound 20]")
12000
>>> result_value("COc1ccc2[nH]c3c(c2c1)CCN[C@]31CS[C@@H]2c3c(OC(C)=O)c(C)c4c(c3[C@H](COCC1=O)N1C2[C@H]2c3c(cc(C)c(OC)c3O)C[C@@H]([C@@H]1C#N)N2C)OCO4 (stereo partly drawn) [Compound 2]")
1.26
>>> result_value("COc1c(C)cc2c(c1O)[C@@H]1C3[C@@H]4SC[C@]5(C(=O)COC[C@@H](c6c7c(c(C)c(OC(C)=O)c64)OCO7)N3[C@@H](C#N)[C@H](C2)N1C)c1[nH]c2ccc(O)cc2c1CCN5C (stereo partly drawn) [Compound 8]")
2.52
>>> result_value("C=CCOc1c(OC)c(C)cc2c1[C@@H]1C3[C@@H]4SC[C@]5(C(=O)COC[C@@H](c6c7c(c(C)c(OC(C)=O)c64)OCO7)N3[C@@H](O)[C@H](C2)N1C)c1[nH]c2ccccc2c1CCN5CC=C (stereo partly drawn) [Compound 49]")
12600
>>> result_value("COc1ccc2c3c([nH]c2c1)[C@@]1(CS[C@@H]2c4c(OC(C)=O)c(C)c5c(c4[C@H](COCC1=O)N1C2[C@H]2c4c(cc(C)c(OC)c4O)C[C@@H]([C@@H]1C#N)N2C)OCO5)NCC3 (stereo partly drawn) [Compound 9]")
378
>>> result_value("COc1c(C)cc2c(c1O)[C@@H]1C3[C@@H]4SC[C@]5(NCCc6c5[nH]c5ccc(O)cc65)C(=O)COC[C@@H](c5c6c(c(C)c(OC(C)=O)c54)OCO6)N3[C@@H](C#N)[C@H](C2)N1C (stereo partly drawn) [Compound 6]")
5.13
>>> result_value("COc1c(C)cc2c(c1O)[C@@H]1C3[C@@H]4SC[C@]5(NCCc6c5[nH]c5ccccc65)C(=O)COC[C@@H](c5c6c(c(C)c(OC(C)=O)c54)OCO6)N3[C@@H](O)[C@H](C2)N1C (stereo partly drawn) [Compound 26]")
7.95
>>> result_value("CCCC(=O)Oc1c(C)c2c(c3c1[C@H]1SC[C@]4(NCCc5c4[nH]c4ccccc54)C(=O)COC[C@@H]3N3C1[C@H]1c4c(cc(C)c(OC)c4O)C[C@@H]([C@@H]3O)N1C)OCO2 (stereo partly drawn) [Compound 63]")
12.8
>>> result_value("C=CCOc1c(OC)c(C)cc2c1[C@@H]1C3[C@@H]4SC[C@]5(C(=O)COC[C@@H](c6c7c(c(C)c(OC(C)=O)c64)OCO7)N3[C@@H](C#N)[C@H](C2)N1C)c1[nH]c2ccccc2c1CCN5CC=C (stereo partly drawn) [Compound 25]")
11800
>>> result_value("COc1c(C)cc2c(c1O)[C@@H]1C3[C@@H]4SC[C@]5(NCCc6c5[nH]c5c(C)cccc65)C(=O)COC[C@@H](c5c6c(c(C)c(OC(C)=O)c54)OCO6)N3[C@@H](C#N)[C@H](C2)N1C (stereo partly drawn) [Compound 11]")
129
>>> result_value("COc1ccc2c3c([nH]c2c1)[C@@]1(CS[C@@H]2c4c(OC(C)=O)c(C)c5c(c4[C@H](COCC1=O)N1C2[C@H]2c4c(cc(C)c(OC)c4O)C[C@@H]([C@@H]1O)N2C)OCO5)NCC3 (stereo partly drawn) [Compound 34]")
2.54
>>> result_value("COc1ccc2[nH]c3c(c2c1)CCN[C@]31CS[C@@H]2c3c(OC(C)=O)c(C)c4c(c3[C@H](COCC1=O)N1C2[C@H]2c3c(cc(C)c(OC)c3O)C[C@@H]([C@@H]1O)N2C)OCO4 (stereo partly drawn) [Compound 27]")
0.764
>>> result_value("COc1c(C)cc2c(c1O)[C@@H]1C3[C@@H]4SC[C@]5(NCCc6c5[nH]c5c(C)cccc65)C(=O)COC[C@@H](c5c6c(c(C)c(OC(C)=O)c54)OCO6)N3[C@@H](O)[C@H](C2)N1C (stereo partly drawn) [Compound 36]")
187
